target-or-system: wtKIT (Homo sapiens, UniProt P10721)
Construct: 1888289AM in the reaction mixtures
Sequence (P10721 26-976): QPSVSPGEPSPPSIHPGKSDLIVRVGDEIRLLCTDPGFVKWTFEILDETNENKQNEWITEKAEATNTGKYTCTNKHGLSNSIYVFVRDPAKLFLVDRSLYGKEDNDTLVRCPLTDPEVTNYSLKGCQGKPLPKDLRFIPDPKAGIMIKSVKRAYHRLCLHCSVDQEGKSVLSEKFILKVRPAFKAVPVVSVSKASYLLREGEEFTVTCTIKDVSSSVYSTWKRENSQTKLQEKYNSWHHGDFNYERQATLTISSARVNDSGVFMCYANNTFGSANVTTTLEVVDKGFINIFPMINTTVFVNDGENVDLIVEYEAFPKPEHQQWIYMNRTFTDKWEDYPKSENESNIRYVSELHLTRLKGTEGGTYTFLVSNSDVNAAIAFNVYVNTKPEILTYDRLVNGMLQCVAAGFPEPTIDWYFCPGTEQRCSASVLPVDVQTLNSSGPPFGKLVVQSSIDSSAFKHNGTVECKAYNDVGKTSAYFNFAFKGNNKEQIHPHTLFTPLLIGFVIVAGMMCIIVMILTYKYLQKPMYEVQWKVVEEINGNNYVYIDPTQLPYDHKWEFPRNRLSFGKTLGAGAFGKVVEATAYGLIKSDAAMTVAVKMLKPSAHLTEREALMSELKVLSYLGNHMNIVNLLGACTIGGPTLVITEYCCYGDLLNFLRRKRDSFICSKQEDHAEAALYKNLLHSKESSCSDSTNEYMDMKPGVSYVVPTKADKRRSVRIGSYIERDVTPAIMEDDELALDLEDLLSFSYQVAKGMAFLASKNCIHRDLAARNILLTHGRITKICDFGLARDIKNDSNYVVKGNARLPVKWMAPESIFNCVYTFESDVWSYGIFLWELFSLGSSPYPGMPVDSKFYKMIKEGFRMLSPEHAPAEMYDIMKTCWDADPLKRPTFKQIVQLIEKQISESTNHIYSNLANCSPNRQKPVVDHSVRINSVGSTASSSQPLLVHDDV
experiment-description: Caliper biochemical assay, wtKIT
condition-context: Table 6, read-out: KIT Biochemical IC50 avg
pIC50: −log10 of the molar value.
parameter-measured: pIC50

                                   molecule  parameter_measured  measurement
0  CCCNc1ccn2c(C(=O)Nc3cc(-c4noc([C@H]5C[C@@H]5F)n4)ccc3C)cnc2c1 [Compound I-304]               pIC50       ≥ 7.30
1  Cc1ccc(-c2noc(C3CCC(F)C3)n2)cc1NC(=O)c1cnc2ccccn12 (racemic) [Compound I-318]               pIC50       ≥ 7.30
2  Cc1ccc(-c2noc(CCO)n2)cc1NC(=O)c1cnc2ccccn12 [Compound I-306]               pIC50       ≥ 7.30

Consider the record given below.
Form field: reported pIC50 of Cc1ccc(-c2noc([C@H]3CCN3S(=O)(=O)c3cccnc3)n2)cc1NC(=O)c1cnc2ccccn12 [Compound I-233]
6.30 to 7.30

* * *

target-or-system: wtKIT (Homo sapiens, UniProt P10721)
Construct: 1888289AM in the reaction mixtures
experiment-description: Caliper biochemical assay, wtKIT
condition-context: Table 6, read-out: KIT Biochemical IC50 avg
pIC50: −log10 of the molar value.
Record form. Attribute: pIC50. Fill in for each entry.

Record excerpt, results attached:
>>> df
                                   compound   measurement
0  Cc1ccc(-c2noc(N3CCC(F)(F)CC3)n2)cc1NC(=O)c1cnc2ccccn12        ≥ 7.30
1  Cc1ccc(-c2noc([C@@H]3CCN3C3CC3)n2)cc1NC(=O)c1cnc2ccccn12 (racemic)        ≥ 7.30
2  Cc1ccc(-c2noc([C@@H]3CCN3S(=O)(=O)C3CCOCC3)n2)cc1NC(=O)c1cnc2ccccn12  6.30 to 7.30
3  COCCS(=O)(=O)N1CC[C@H]1c1nc(-c2ccc(C)c(NC(=O)c3cnc4ccccn34)c2)no1  6.30 to 7.30
4  Cc1ccc(-c2noc([C@H]3C[C@@H]3F)n2)cc1NC(=O)c1cnc2ccc(Nc3ccc4c(c3)OCCO4)cn12        ≥ 7.30
5  Cc1ccc(-c2noc(CC(C)O)n2)cc1NC(=O)c1cnc2ccccn12 (racemic)        ≥ 7.30

Consider the record given below.
Form field: reported pIC50 of "Cc1cc(C)cc(Nc2ccc3ncc(C(=O)Nc4cc(-c5noc([C@H]6C[C@@H]6F)n5)ccc4C)n3c2)c1"
≥ 7.30

* * *

target-or-system: BCRP (BCRP-MDCKII monolayer) (Homo sapiens, UniProt Q9UNQ0)
Construct: host or cells: MDCKII (canine kidney) cells
Sequence (Q9UNQ0 1-655): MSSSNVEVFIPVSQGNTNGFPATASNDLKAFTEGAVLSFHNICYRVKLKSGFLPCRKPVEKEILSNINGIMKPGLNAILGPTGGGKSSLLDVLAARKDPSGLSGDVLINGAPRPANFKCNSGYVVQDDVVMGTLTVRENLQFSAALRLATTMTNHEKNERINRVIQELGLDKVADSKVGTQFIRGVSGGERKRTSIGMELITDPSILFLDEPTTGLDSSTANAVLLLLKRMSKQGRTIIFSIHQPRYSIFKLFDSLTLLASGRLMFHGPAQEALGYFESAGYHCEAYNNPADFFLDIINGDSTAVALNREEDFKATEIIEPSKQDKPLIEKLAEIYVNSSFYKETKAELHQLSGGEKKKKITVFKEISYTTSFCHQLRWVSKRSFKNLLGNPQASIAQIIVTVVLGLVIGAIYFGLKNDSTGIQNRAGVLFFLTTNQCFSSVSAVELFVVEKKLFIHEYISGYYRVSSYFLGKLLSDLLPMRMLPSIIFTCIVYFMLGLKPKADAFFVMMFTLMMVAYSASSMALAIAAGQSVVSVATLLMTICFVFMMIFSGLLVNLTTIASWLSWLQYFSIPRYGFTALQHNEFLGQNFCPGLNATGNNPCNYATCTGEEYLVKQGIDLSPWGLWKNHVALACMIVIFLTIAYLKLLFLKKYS
experiment-description: MDCKII-BCRP bidirectional transport assay
Format: in vitro ADME
Could you label it satisfied if measured MDCK-BCRP: Efflux Ratio is 1 or higher, and not satisfied otherwise?

>>> print(df.to_string())
                                   compound  assigned_label
0  COC(=O)N1CC(c2nc(-c3ccc(Br)c(NC(=O)c4cnc5ccccn45)c3)no2)C1   not satisfied
1  Cc1ccc(-c2noc(C3(O)CC(F)(F)C3)n2)cc1NC(=O)c1cnc2ccccn12       satisfied

Quick check, MDCK-BCRP: Efflux Ratio >= 1? Cc1ccc(-c2noc(CC(O)C(F)F)n2)cc1NC(=O)c1cnc2ccccn12 (stereo not shown) [Compound I-114]
satisfied

Quick check, MDCK-BCRP: Efflux Ratio >= 1? Cc1ccc(-c2noc(C3CCC3F)n2)cc1NC(=O)c1cnc2ccccn12 (stereo not shown) [Compound I-400]
satisfied

Quick check, MDCK-BCRP: Efflux Ratio >= 1? "Cc1nc(-c2ccc(C)c(NC(=O)c3cnc4ccc(N(C)C)cn34)c2)no1"
satisfied

Quick check, MDCK-BCRP: Efflux Ratio >= 1? "Cc1ccc(-c2noc(C3(N)CC4(CC(F)(F)C4)C3)n2)cc1NC(=O)c1cnc2ccccn12"
satisfied

Quick check, MDCK-BCRP: Efflux Ratio >= 1? "COCCS(=O)(=O)N1CC(c2nc(-c3ccc(C)c(NC(=O)c4cnc5ccccn45)c3)no2)C1"
satisfied

* * *

target-or-system: PDGFRα (Homo sapiens)
Construct: purchased Millipore 14-467 (lot 26321_ACTI)
Sequence (P16234 24-1089): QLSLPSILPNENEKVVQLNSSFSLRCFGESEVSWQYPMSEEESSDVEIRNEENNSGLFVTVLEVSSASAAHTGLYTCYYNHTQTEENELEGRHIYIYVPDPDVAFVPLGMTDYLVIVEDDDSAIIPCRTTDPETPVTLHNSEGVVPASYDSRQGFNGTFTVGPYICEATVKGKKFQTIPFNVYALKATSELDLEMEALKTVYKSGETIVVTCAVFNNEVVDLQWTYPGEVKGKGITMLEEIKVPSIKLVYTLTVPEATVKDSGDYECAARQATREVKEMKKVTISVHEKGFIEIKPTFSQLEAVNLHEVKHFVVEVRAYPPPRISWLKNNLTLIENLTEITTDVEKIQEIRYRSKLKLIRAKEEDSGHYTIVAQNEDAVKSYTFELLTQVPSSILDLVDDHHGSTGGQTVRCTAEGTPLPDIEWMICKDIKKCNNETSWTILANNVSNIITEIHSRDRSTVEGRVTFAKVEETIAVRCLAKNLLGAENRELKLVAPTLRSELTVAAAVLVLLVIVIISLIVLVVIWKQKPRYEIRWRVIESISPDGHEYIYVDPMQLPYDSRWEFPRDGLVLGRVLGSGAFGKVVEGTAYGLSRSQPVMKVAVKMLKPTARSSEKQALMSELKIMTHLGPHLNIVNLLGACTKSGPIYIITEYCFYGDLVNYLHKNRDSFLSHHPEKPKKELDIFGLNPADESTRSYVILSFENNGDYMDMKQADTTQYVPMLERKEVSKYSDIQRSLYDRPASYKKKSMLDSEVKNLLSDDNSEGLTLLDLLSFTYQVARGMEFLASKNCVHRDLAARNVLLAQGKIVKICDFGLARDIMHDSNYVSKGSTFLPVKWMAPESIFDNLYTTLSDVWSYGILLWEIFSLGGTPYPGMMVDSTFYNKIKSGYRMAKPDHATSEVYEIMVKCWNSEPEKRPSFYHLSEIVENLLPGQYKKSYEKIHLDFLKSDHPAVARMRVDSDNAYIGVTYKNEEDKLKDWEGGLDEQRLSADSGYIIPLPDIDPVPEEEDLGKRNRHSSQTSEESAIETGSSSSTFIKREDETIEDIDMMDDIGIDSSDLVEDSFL
experiment-description: HTRF biochemical assay, PDGFRα
condition-context: Table 4, read-out: PDFGRα Biochemical IC50 avg
pIC50: −log10 of the molar value.
Record form. Attribute: pIC50. Fill in for each entry.

Record excerpt, results attached:
                                   compound   measurement
0  Cc1ccc(-c2noc(CC(O)C(F)F)n2)cc1NC(=O)c1cnc2ccccn12 (stereo not shown) [Compound I-122]  5.30 to 6.30
1  COCCOCc1ccn2c(C(=O)Nc3cc(-c4noc([C@H]5C[C@@H]5F)n4)ccc3C)cnc2c1  5.30 to 6.30
2  Cc1ccc(-c2noc(C3CC3F)n2)cc1NC(=O)c1cnc2cc(COC3CC(O)C3)ccn12 (mixture of isomers) [Compound I-72]  5.30 to 6.30
3  Cc1ccc(-c2noc([C@H]3C[C@@H]3F)n2)cc1NC(=O)c1cnc2cc(COCC(C)(C)O)ccn12  4.52 to 5.30

For each of the items listed, what is its pIC50?
1. Cc1ccc(-c2noc(C3CC(OCCF)C3)n2)cc1NC(=O)c1cnc2ccccn12 (stereo not shown)
2. Cc1ccc(-c2noc([C@H]3C[C@@H]3F)n2)cc1NC(=O)c1cnc2cc(F)ccn12
3. Cc1ccc(-c2noc(C(F)C3CC3)n2)cc1NC(=O)c1cnc2ccccn12 (racemic)

4.52 to 5.30
5.30 to 6.30
4.52 to 5.30

* * *

experiment-description: Three time point assay for plasma, brain and testes distribution after oral dosing
Type: in vivo, rat
condition-context: rat, oral dosing, time point 2 h
Kp brain/plasma under 0.2 gets YES, anything at or over 0.2 gets NO.

Past entries and their recorded results:
>>> df
                                   compound  assigned_label
0  Cc1ccc(-c2noc([C@H](C)O)n2)cc1NC(=O)c1cnc2ccccn12             YES
1  COCCOCc1ccn2c(C(=O)Nc3cc(-c4noc([C@H]5C[C@@H]5F)n4)ccc3C)cnc2c1             YES
2  COC(=O)N1CC(c2nc(-c3ccc(C(F)F)c(NC(=O)c4cnc5ccccn45)c3)no2)C1             YES

Here's an entry: "Cc1ccc(-c2noc([C@H]3CC(F)(F)CN3)n2)cc1NC(=O)c1cnc2ccccn12" . Is its Kp brain/plasma below 0.2?
YES

Here's an entry: COc1ccn2c(C(=O)Nc3cc(-c4noc(CC(O)C(F)F)n4)ccc3C)cnc2c1 (single isomer, unassigned) . Is its Kp brain/plasma below 0.2?
YES

Here's an entry: "Cc1ccc(-c2noc([C@H]3C[C@@H]3F)n2)cc1NC(=O)c1cnc2cc(OC(F)(F)F)ccn12" . Is its Kp brain/plasma below 0.2?
NO

Here's an entry: Cc1ccc(-c2noc(C3CC(OCCF)C3)n2)cc1NC(=O)c1cnc2ccccn12 (stereo not shown) . Is its Kp brain/plasma below 0.2?
NO

* * *

target-or-system: wtKIT (Homo sapiens)
Construct: 1888289AM in the reaction mixtures
experiment-description: HTRF biochemical assay, wtKIT (phosphorylation of a peptide substrate)
condition-context: Table 4
Record form. Attribute: IC50. Fill in for each entry.

Record excerpt, results attached:
>>> df
                              line_notation  parameter_measured     measurement
0  Cc1ccc(-c2ncon2)cc1NC(=O)c1cnc2cc(COCC(C)(C)O)ccn12                IC50  500 to 5000 nM
1  Cc1nc(-c2ccc(C)c(NC(=O)c3cnc4ccc(N(C)C)cn34)c2)no1                IC50         ≤ 50 nM
2  Cc1ccc(-c2ncon2)cc1NC(=O)c1cnc2cc(F)ccn12                IC50  500 to 5000 nM

For each of the items listed, what is its IC50?
1. CNCCOCc1ccn2c(C(=O)Nc3cc(-c4noc(C[C@H](O)C(F)F)n4)ccc3C)cnc2c1
2. Cc1ccc(-c2noc([C@H]3CCN3)n2)cc1NC(=O)c1cnc2cc(C#N)ccn12

1. 50 to 500 nM
2. 50 to 500 nM
